B1: GA-binding protein alpha chain, residues 172 to 250; numbered along this chain, Q06546 (parent)
chain: GYRKEQERLGIPYDPIQWSTDQVLHWVVWVMKEFSMTDIDLTTLNISGRELCSLNQEDFFQRVPRGEILWSHLELLRKY

variants of: B1; assay: abundance fitness (aPCA) (normalised: wild type 0, dead -1); higher = more abundant; growth selection in yeast, the domain comes from the species named; conditions: Homo sapiens
observed_property: abundance fitness

GYRKEQERLGIPYDPIQWSTDQVLHWVVWVMKEFSMVDIDLTTLNISGRELCSLNQEDFFQRVPRGEILWSHLELLRKY [T37V] :: -0.1
GYRKEQERLGIPYDPIQWSTDQVLHWVVWVMKEFSMTDIDLTTLNISLRELCSLNQEDFFQRVPRGEILWSHLELLRKY [G48L] :: -0.982
GYRKEQEILGIPYDPIQWSTDQVLHWVVWVMKEFSMTDIDLTTLNISGRELCSLNQEDFFQRVPRGEILWSHLELLRKY [R8I] :: -0.222
GYRKEQERLGIPYDPIQWSTDQVLHWVVWVMKEFSMTDIDLTTLNISGRELCSLNQEDFFQRVPCGEILWSHLELLRKY [R65C] :: -0.004
GYRKEQERLGIPYDPIQWSTDQVLHWVVRVMKEFSMTDIDLTTLNISGRELCSLNQEDFFQRVPRGEILWSHLELLRKY [W29R] :: -0.9
GYRKEQERLGIPYDPIQWSTDQVLHWVVWVMKYFSMTDIDLTTLNISGRELCSLNQEDFFQRVPRGEILWSHLELLRKY [E33Y] :: -0.257
GYRKEQERLGIPYDPIQWSTDQVLHWVVWVMKEFSMTDIMLTTLNISGRELCSLNQEDFFQRVPRGEILWSHLELLRKY [D40M] :: -0.543
GYRKEQERLGIPYDPIQLSTDQVLHWVVWVMKEFSMTDIDLTTLNISGRELCSLNQEDFFQRVPRGEILWSHLELLRKY [W18L] :: -0.974
GYRKEQERLGIPYDPIQWSTDQVLHWVVWVMKEFSMTDIDLTTLNISGRELCSLNQEDFYQRVPRGEILWSHLELLRKY [F60Y] :: -0.06
GYRKEQERLGIPYDMIQWSTDQVLHWVVWVMKEFSMTDIDLTTLNISGRELCSLNQEDFFQRVPRGEILWSHLELLRKY [P15M] :: -0.635
GYRKEQERLGIPYDPIQWSTDQVMHWVVWVMKEFSMTDIDLTTLNISGRELCSLNQEDFFQRVPRGEILWSHLELLRKY [L24M] :: -0.011
GYRKEQERLGIPYDPIQWSTDQVLHWVVWVMKEFSMTDIDLTTLNISGRELCSLNQEKFFQRVPRGEILWSHLELLRKY [D58K] :: -0.129
GYRKEQERLGIPYDPIQWSTDQVLHWVVWVMKEFSMTDIDLTTLNISGRELCSLNQEDFFQRVPRGEILWSHLYLLRKY [E74Y] :: -0.287
GYRKEQERLGIPYDPIQWSFDQVLHWVVWVMKEFSMTDIDLTTLNISGRELCSLNQEDFFQRVPRGEILWSHLELLRKY [T20F] :: -0.716
GYRKEQERLGIPYDPIQWSTDQVLHWVVWVMKEFSMTDIDITTLNISGRELCSLNQEDFFQRVPRGEILWSHLELLRKY [L41I] :: 0.006
GYRKEQERSGIPYDPIQWSTDQVLHWVVWVMKEFSMTDIDLTTLNISGRELCSLNQEDFFQRVPRGEILWSHLELLRKY [L9S] :: -0.174
GYRKEQERLGIPYDPIQWSTDQVLHWVVWVMKEFSMTDIDLTTLNISGRELCSLNQEDFFQRVPRGEILKSHLELLRKY [W70K] :: -0.872
GYRKEQERLGIPYDPIQWSTDQVLHAVVWVMKEFSMTDIDLTTLNISGRELCSLNQEDFFQRVPRGEILWSHLELLRKY [W26A] :: -0.904
GYRKEQERLGIPADPIQWSTDQVLHWVVWVMKEFSMTDIDLTTLNISGRELCSLNQEDFFQRVPRGEILWSHLELLRKY [Y13A] :: -0.085
GYRKEQERLGIPYDPIQWSTDQVLHWVHWVMKEFSMTDIDLTTLNISGRELCSLNQEDFFQRVPRGEILWSHLELLRKY [V28H] :: -0.013
GYRKEQERLGIPYDPIQWSTDQVLHWVVWVMKRFSMTDIDLTTLNISGRELCSLNQEDFFQRVPRGEILWSHLELLRKY [E33R] :: -0.031
GYRKEQERLGIPYDPIQWSTDQVLHWVVWGMKEFSMTDIDLTTLNISGRELCSLNQEDFFQRVPRGEILWSHLELLRKY [V30G] :: -0.051
GYRKEQERLGIPYDPIQWSTDQVLHWVVWVMKEFSMTDGDLTTLNISGRELCSLNQEDFFQRVPRGEILWSHLELLRKY [I39G] :: -0.185
GYRKEQERLGIPYDPIQWSTDQVLHWVVWVMKEFSMTDIDLTTLNISGRELCSLNQEDFFQRVPRIEILWSHLELLRKY [G66I] :: -0.772
GYRKEQERLGIPYDPIQWSTDQVLHWVVWVMKEFSMTDIDLTTLNISGRELCSLNQEPFFQRVPRGEILWSHLELLRKY [D58P] :: -0.943
GYRKEQERLGIPYDPIQWSTDQVLHWVVWVMKEFSMTNIDLTTLNISGRELCSLNQEDFFQRVPRGEILWSHLELLRKY [D38N] :: -0.082
GYRKEKERLGIPYDPIQWSTDQVLHWVVWVMKEFSMTDIDLTTLNISGRELCSLNQEDFFQRVPRGEILWSHLELLRKY [Q6K] :: -0.96
GYRKEQERLGIPYDPIQWSTDAVLHWVVWVMKEFSMTDIDLTTLNISGRELCSLNQEDFFQRVPRGEILWSHLELLRKY [Q22A] :: -0.295
GYRKEQERLGIPYDPIQWSTDQVLHWVVTVMKEFSMTDIDLTTLNISGRELCSLNQEDFFQRVPRGEILWSHLELLRKY [W29T] :: -0.452
GYRKEQERLGIPYDPIQWSTDQVLHWVVWVMKEFSMTDIDLTTLNLSGRELCSLNQEDFFQRVPRGEILWSHLELLRKY [I46L] :: -0.034
GYRKEQERLGIPYDPIQWSTDQVLHWVVWVMKEFSMTDITLTTLNISGRELCSLNQEDFFQRVPRGEILWSHLELLRKY [D40T] :: -0.263
GYRKEQERLGIPYDPIQWSTDQVLHWHVWVMKEFSMTDIDLTTLNISGRELCSLNQEDFFQRVPRGEILWSHLELLRKY [V27H] :: -0.758
GYRKEQERLGIPYDPIQWSTDQVLHWFVWVMKEFSMTDIDLTTLNISGRELCSLNQEDFFQRVPRGEILWSHLELLRKY [V27F] :: -0.256
GYRKEQERKGIPYDPIQWSTDQVLHWVVWVMKEFSMTDIDLTTLNISGRELCSLNQEDFFQRVPRGEILWSHLELLRKY [L9K] :: -0.061
GYRKEQERLGIPYDPIQWSTDQVLHWVVWVMKEFSMTDIDLTTLNISGRELCSLRQEDFFQRVPRGEILWSHLELLRKY [N55R] :: -0.014
GYRKEQERLGIPYDPIQWSTDQVLHWVVWVMKEFSMTDIDLTTLNISGRELCSLNQEDFFQRVPRGEILWIHLELLRKY [S71I] :: -0.157
GYRKEQERLGIPYDPIQHSTDQVLHWVVWVMKEFSMTDIDLTTLNISGRELCSLNQEDFFQRVPRGEILWSHLELLRKY [W18H] :: -1
GYRKEQERLGIPYDPIQWSTDQVLHMVVWVMKEFSMTDIDLTTLNISGRELCSLNQEDFFQRVPRGEILWSHLELLRKY [W26M] :: -0.976
GYRKEQERLGIRYDPIQWSTDQVLHWVVWVMKEFSMTDIDLTTLNISGRELCSLNQEDFFQRVPRGEILWSHLELLRKY [P12R] :: -0.969
GYRSEQERLGIPYDPIQWSTDQVLHWVVWVMKEFSMTDIDLTTLNISGRELCSLNQEDFFQRVPRGEILWSHLELLRKY [K4S] :: -0.026
GYRKEQERLGIEYDPIQWSTDQVLHWVVWVMKEFSMTDIDLTTLNISGRELCSLNQEDFFQRVPRGEILWSHLELLRKY [P12E] :: -0.478
GYRKEQERLGIPYDPIQWSCDQVLHWVVWVMKEFSMTDIDLTTLNISGRELCSLNQEDFFQRVPRGEILWSHLELLRKY [T20C] :: -0.118
GYPKEQERLGIPYDPIQWSTDQVLHWVVWVMKEFSMTDIDLTTLNISGRELCSLNQEDFFQRVPRGEILWSHLELLRKY [R3P] :: -0.517
GYRKEQERLGIPYDPIQWSTDQVLHWVVWVMKEFSMTDIDLTTLNISGRPLCSLNQEDFFQRVPRGEILWSHLELLRKY [E50P] :: -0.94
GYRKEQERLGIPYDPIQWSTDQVLHWVVWVMKEFSMTDIDLTTLNISGRELCSLNQEDFEQRVPRGEILWSHLELLRKY [F60E] :: -0.074
GYRKEQIRLGIPYDPIQWSTDQVLHWVVWVMKEFSMTDIDLTTLNISGRELCSLNQEDFFQRVPRGEILWSHLELLRKY [E7I] :: -0.161
GYRKEQERLGIPYDPIQWSTDQVLHWVVWVMKEFSMTDIDLTTLNISGRELCSLYQEDFFQRVPRGEILWSHLELLRKY [N55Y] :: -0.274
GYRKEQERLGIPYDPIQWSTDQVLHPVVWVMKEFSMTDIDLTTLNISGRELCSLNQEDFFQRVPRGEILWSHLELLRKY [W26P] :: -0.947
GYRKEQERLGIPYDPIQWSTDQVLHWVVWVMKEFSMTDIDLTTLNISGRELFSLNQEDFFQRVPRGEILWSHLELLRKY [C52F] :: -0.333
GYRWEQERLGIPYDPIQWSTDQVLHWVVWVMKEFSMTDIDLTTLNISGRELCSLNQEDFFQRVPRGEILWSHLELLRKY [K4W] :: -0.12
GYRKEQERLGIPYDPIQWSTDQVLHWVVWVMKEFSMTDIDLTTLNISGRELCSLNQEDFKQRVPRGEILWSHLELLRKY [F60K] :: -0.048
GYRKEQERLGIPYDPIQWSTDQVLHWVVWVMKEFSMTDIDLTTLNISGRELCDLNQEDFFQRVPRGEILWSHLELLRKY [S53D] :: 0.076
GYRKEQERLGIPYDPIQWSTDQELHWVVWVMKEFSMTDIDLTTLNISGRELCSLNQEDFFQRVPRGEILWSHLELLRKY [V23E] :: -0.951
GYRKEQERLGIPYDPIQWSTDQVLHWVVWVMKEFQMTDIDLTTLNISGRELCSLNQEDFFQRVPRGEILWSHLELLRKY [S35Q] :: 0.014
GYRKEQERLGIPYDYIQWSTDQVLHWVVWVMKEFSMTDIDLTTLNISGRELCSLNQEDFFQRVPRGEILWSHLELLRKY [P15Y] :: -0.901
GYRKEQERLGIPYDPIQWSTDQVLHWVVWVMKEFSMTDIDLTTLNISGRELKSLNQEDFFQRVPRGEILWSHLELLRKY [C52K] :: -0.887
GYRKEQERLGIPYDPIQWSTDQVLHWVVWVMKECSMTDIDLTTLNISGRELCSLNQEDFFQRVPRGEILWSHLELLRKY [F34C] :: -0.068
GYRKEQERLGIPYDPIQWSTDQVLHWVVWVMKEFYMTDIDLTTLNISGRELCSLNQEDFFQRVPRGEILWSHLELLRKY [S35Y] :: -0.205
GYRKEQERLGIPYDPIQWSTDQVLHWVVWVMKEFSMTDIDLTTLNISGRELCSLNQEDFFQRVMRGEILWSHLELLRKY [P64M] :: -0.952
GYRKEQERLGIPYDPIQWSTDQVLHWVVWVMKEFSMTDIDLTTLNISGRELCSLNQEDFFQRVPRGKILWSHLELLRKY [E67K] :: 0.064
GYRKEQERLGIPYDPIQWATDQVLHWVVWVMKEFSMTDIDLTTLNISGRELCSLNQEDFFQRVPRGEILWSHLELLRKY [S19A] :: -0.664
GYRKEQERLGIPYDPIQWSTDQVLHWVVWVMKEFSMTDIVLTTLNISGRELCSLNQEDFFQRVPRGEILWSHLELLRKY [D40V] :: -0.44
GYRKEQERLGIPYDPIQWSTDQVLHWVVWVMKEFSMTDIDLTTLNISGRELCSLNQEDFGQRVPRGEILWSHLELLRKY [F60G] :: -0.101
GYRKEQERLGIPYDPIQWSTDQVLHWVVWVMKEFSMTDIDLTTLNISGREQCSLNQEDFFQRVPRGEILWSHLELLRKY [L51Q] :: -0.951
GYRKEQERLGIPYDPIQWSTDQVLHWVVWVMKEFSMTDIDLTTLNISGRELCSLNQEDFFQRVPRGEILWSHLELLRYY [K78Y] :: -0.208
GYRKEQERLGIPYDPIQWSTDQVLHWVVWVMKEASMTDIDLTTLNISGRELCSLNQEDFFQRVPRGEILWSHLELLRKY [F34A] :: -0.031
GYRKEQERLGIPYDPIQWSTDQVLHWVVWVMKEFSMTDIDLTTLNISHRELCSLNQEDFFQRVPRGEILWSHLELLRKY [G48H] :: -0.305
GYRKEQERLGIPYDPIQWSTDQVLHQVVWVMKEFSMTDIDLTTLNISGRELCSLNQEDFFQRVPRGEILWSHLELLRKY [W26Q] :: -0.875
